Let's look at some molecules and their measured Cynomolgus Primary Hepatocytes-% Editing.
# Tested on: PCSK9 gene
# protocol.summary: PCSK9 gRNA/SpCas9 editing in primary cynomolgus hepatocytes (Tables 2, 22)
# Format: cell-based, cynomolgus monkey
# condition.summary: SpCas9 mRNA MS002, 625 ng/test article/mL, rep1
In the oligonucleotide strings, read from the 5' end, every base follows the letter of its sugar. An asterisk marks phosphorothioate; unmarked linkages are phosphodiester. Other units and linkages are bracketed, terminal groups are in braces. A string of capitals states the bases alone. m = 2'-O-methyl; r = 2'-OH (RNA)
Value expressed in %; do not type the unit.

Previously resolved entries follow.
GA405: gRNA targeting PCSK9 with modifications to the tracr, for SpCas9 (nucleic acid) guide: mU*mC*mA*rGrCrUrCrCrArGrGrCrGrGrUrCrCrUrGrGmGrUrUrUrUrArGmAmGmCmUmAmGmAmAmAmUmAmGmCmAmArGrUrUmArAmArAmUrAmAmGmGmCmUmArGrUrCmCrGrUrUrAmUmCrArAmCmUmUmGmAmAmAmAmAmGmUmGmGmCmAmCmCmGmAmGmUmCmGmGmUmGmCmU*mU*mU*mUmUrUmU : 26.2
GA401 (nucleic acid) guide: mU*mC*mA*rGrCrUrCrCrArGrGrCrGrGrUrCrCrUrGrGmGrUrUrUrUrArGmAmGmCmUmAmGmAmAmAmUmAmGmCmAmArGrUrUmArAmArAmUrAmAmGmGmCmUmArGrUmCmCrGrUrUrAmUmCrArAmCmUmUmGmAmAmAmAmAmGmUmGrGmCmAmCmCmGmAmGmUmCmGmGmUmGmCmU*mU*mU*mUmUmUmU : 38.33
GA395 (nucleic acid) guide: mU*mC*mA*rGrCrUrCrCrArGrGrCrGrGrUrCrCrUrGrGmGrUrUrUrUrArGmAmGmCmUmArGmAmAmAmUmAmGmCmAmArGrUrUmArAmArAmUrAmAmGmGmCmUmArGrUmCmCrGrUrUrAmUmCrArAmCmUmUrGmAmAmAmAmAmGmUmGrGmCmAmCmCmGmAmGmUmCmGmGmUmGmCmU*mU*mU*mUmUmUmU : 33.87
GA399 (nucleic acid) guide: mU*mC*mA*rGrCrUrCrCrArGrGrCrGrGrUrCrCrUrGrGmGrUrUrUrUrArGmAmGmCmUmAmGmAmAmAmUmAmGmCmAmArGrUrUmArAmArAmUrAmAmGmGmCmUmArGmUrCmCrGrUrUmAmUmCrArAmCmUmUmGmAmAmAmAmAmGmUmGmGmCmAmCmCmGmAmGmUmCmGmGmUmGmCmU*mU*mU*mUmUmUmU : 37.75
GA406 (nucleic acid, listed as RNA; modified_base 1: mod_base = OTHER; note = 2'-O-Methyl-uridine phosphorothioate; modified_base 2: mod_base = OTHER; note = 2'-O-Methyl-cytidine phosphorothioate; modified_base 3: mod_base = OTHER; note = 2'-O-Methyl-adenosine phosphorothioate;) guide: TCAGCTCCAGGCGGTCCTGGGTTTTAGAGCTAGAAATAGCAAGTTAAAATAAGGCTAGTCCGTTATCAACTTGAAAAAGTGGCACCGAGTCGGTGCTTTTTTT : 37.58

Now look at this one.
Query :: Would you mind telling me what Cynomolgus Primary Hepatocytes-% Editing value was observed for GA402 (nucleic acid) guide: mU*mC*mA*rGrCrUrCrCrArGrGrCrGrGrUrCrCrUrGrGmGrUrUrUrUrArGmAmGmCmUmArGmAmAmAmUmAmGmCmAmArGrUrUmArAmArAmUrAmAmGmGmCmUmArGrUmCmCrGrUrUrAmUmCrArAmCmUmUrGmAmAmAmAmAmGmUmGrGmCmAmCmCmGmAmGmUmCmGmGmUmGmCmU*mU*mU*mUmUrUmU ?
Result :: 35.05
